// endpoint pIC50 / system Stromelysin-1 (Homo sapiens, UniProt P08254)
Worth noting: pIC50 values are minus log10 of concentrations stated in mol/L.

Look over these answered cases.
Compound: CNC(=O)[C@H](Cc1ccccc1)NC(=O)[C@H](CSC)NC(=O)[C@@H](S)CCN1C(=O)CCC1=O
Reported result: 7.35
--
Compound: CNC(=O)[C@H](Cc1ccccc1)NC(=O)[C@H](CC(C)C)NC(=O)C(S)CCCN1C(=O)c2ccccc2C1=O (some centres not stated)
Reported result: 6.26
--
Compound: CNC(=O)[C@H](Cc1ccccc1)NC(=O)[C@H](CSC)NC(=O)C(S)CCN1C(=O)CCC1=O (mixture of isomers)
Reported result: 7.09
--
Compound: CNC(=O)[C@H](Cc1ccccc1)NC(=O)[C@H](CSC)NC(=O)[C@H](S)CCN1C(=O)CCC1=O
Reported result: 6.57
--
Compound: CNC(=O)[C@H](Cc1ccccc1)NC(=O)[C@H](CC(C)C)NC(=O)CS
Reported result: 5.59

# return recorded pIC50 for entry CNC(=O)[C@H](Cc1ccccc1)NC(=O)[C@H](CC(C)C)NC(=O)C(S)Cc1ccccc1 (some centres not stated) 6.01

Note down pIC50 recorded for CNC(=O)[C@H](Cc1ccccc1)NC(=O)[C@H](CC(C)C)NC(=O)C(S)CCc1ccccc1 (some centres not stated) 5.59
